Could you please report measured pre-steady-state target cleavage rate for the items listed next?
System: MILI (PIWIL2) piRISC loaded with piRNA #1 (26 nt);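 note: 1 nM active piRISC with 0.1 nM target library at 33 °C single turnover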
EXPERIMENT: pre-steady-state target cleavage rate (min^-1); guide: piRNA #1 5'p-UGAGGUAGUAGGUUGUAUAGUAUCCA; MIWI and MILI are mouse PIWI proteins and EfPiwi is from a freshwater sponge; tags in brackets are library labels; higher = faster piRNA-guided slicing of the target
CONDITION: auxiliary factor: 500 nM mouse GTSF1
Format: numeric value only, no unit, no commentary.

Need pre-steady-state target cleavage rate of `GGAGAGGAUACUAUACAACCUUCUACCACA` , thanks.
0.00472

Further, for `GGAGACCUAUCUAUACAACCUACUACACUCA` ?
0.179

Further, for `GGAGUGGAUACAAUACAACCUACUACCUGA` ?
0.0731

Further, for `GGAGACCUAUCUUUACAACCUAGUACCUCA` ?
0.00897

Further, for `GGAGUUGGAUACUAUACAACCUACUACCUCA` ?
0.184

Further, for `GGAGACCAUACUGAUACAACCUACUACCUCA` ?
0.112

Further, for `GGAGACGAUACCAUACAACCUACUACCUCA` ?
0.236

Further, for `GGAGACGAUACUAUACAACCUACUACCUUA` ?
0.228

Further, for `GGAGACCUAUCUAUACAACCUACUACCACA` ?
0.136

Further, for `GGAGACCAUACUAUACAUCCUACUUCCUCA` ?
0.176

Further, for `GGAGACGAUACUAUACUACCUACUACGUCA` ?
0.138

Further, for `GGAGAGCAUACUAUACAUCCUACUACCUCA` ?
0.335

Further, for `GGAGUGGAUACUAUUCAACCUACUAGCUCA` ?
0.0538
